Source listed as patent US10730840B2.

Please respond with reported IC50 MDA-MB-231 for every item in the list.
System: MDA-MB-231 (ER negative breast carcinoma cell line)
Test: CellTiter-Glo antiproliferative activity, MDA-MB-231 cell line
Format: cell-based, human
Details: Table 1; 72 h exposure, in the presence of 10 nM estradiol
Give your result in µg/mL as a bare value.

Item Nc1ccc(C(=O)NN2CCc3ccc(Br)cc3C2)cc1 has what recorded IC50 MDA-MB-231? 9.86

# query: IC50 MDA-MB-231 of entry CCc1ccc(C(=O)NN2CCc3c(O)cccc3C2)cc1 15.61

Form field: reported IC50 MDA-MB-231 of CC(C)(C)c1ccc(C(=O)NN2CCc3c(O)cccc3C2)cc1 10.25

###

Give IC50 Ishikawa for every item shown.
System: Ishikawa (endometrial) cancer cell line
Assay: CellTiter-Glo antiproliferative activity, Ishikawa cell line
Assay type: cell-based, human
Details: Table 1; 72 h exposure, in the presence of 10 nM estradiol

Any idea what its IC50 Ishikawa is? The compound is CC(C)(C)c1ccc(C(=O)NN2CCc3c(cccc3OCc3ccccc3)C2)cc1 >41.45 mg/L

Name the reported IC50 Ishikawa value associated with the compound COc1cccc2c1CCN(NC(=O)c1ccc(C(C)(C)C)cc1)C2 >33.84 mg/L

If you can, please state the reported IC50 Ishikawa value of CCc1ccccc1C(=O)NN1CCc2ccc(O)cc2C1 . >29.64 mg/L

###

Test readout: melting point

Bench note: what melting point did COc1ccc(C(=O)NN2CCc3ccc(O)cc3C2)cc1 [Compound 2d] show? 192.5 to 194.3 °C

Give the measured melting point of CCc1ccc(C(=O)NN2CCc3cc(OC(=O)c4ccc(CC)cc4)ccc3C2C(=O)OC)cc1 (stereo not drawn) [Compound 4f] . 150 to 152 °C

Requested field: melting point. Item: CCc1ccc(C(=O)NN2CCc3cc(OC)c(OC)cc3C2)cc1 [Compound 4b] 224 to 225 °C

###

Tested on: MDA-MB-231 (ER negative breast carcinoma cell line)
Experiment: CellTiter-Glo antiproliferative activity, MDA-MB-231 cell line
Type: cell-based, human
Conditions: Table 1; 72 h exposure, in the presence of 10 nM estradiol
Exercise: for every item that follows, state its recorded IC50 MDA-MB-231.

IC50 MDA-MB-231 for COc1cccc2c1CCN(NC(=O)c1ccc(C(C)(C)C)cc1)C2 ? >33.84 µg/mL

Returns the measured IC50 MDA-MB-231 for the input compound. Input: CC(C)(C)c1ccc(C(=O)NN2CCc3c(cccc3OCc3ccccc3)C2)cc1 >41.45 µg/mL

May I ask what IC50 MDA-MB-231 has been recorded for CCc1ccc(C(=O)NN2CCc3cc(O)ccc3C2)cc1 ? >29.64 µg/mL

Item CCc1ccccc1C(=O)NN1CCc2ccc(O)cc2C1 has what recorded IC50 MDA-MB-231? >29.64 µg/mL
